Values were extracted from patent US20110002929A1.

measurement_target: T1, human RANK-L (human, UniProt O14788 140-317, limits assumed)
T1 construct: Soluble protein, used coated, biotinylated or labelled in ELISA, AlphaScreen, FMAT and Biacore; also called hRANK-L; soluble human RANK-L
T1 sequence (looked up): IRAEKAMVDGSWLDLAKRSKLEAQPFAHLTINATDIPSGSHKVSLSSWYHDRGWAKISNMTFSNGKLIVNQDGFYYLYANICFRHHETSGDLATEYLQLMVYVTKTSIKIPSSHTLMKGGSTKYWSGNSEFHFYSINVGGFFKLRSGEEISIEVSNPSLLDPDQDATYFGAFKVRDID
protocol: SPR Biacore 3000, hRANK-L on CM5, 100 nM Nanobody
parameter_measured: koff (s⁻¹)
Could you give me the number in s⁻¹? Just the number is fine.

RANKL18hum1 (VHH, name in Kabat numbering) VHH: EVQLVESGGGLVQPGGSLRLSCAASGFTFSRSAMGWFRQAPGKGREFVGFITGSGGTTYYGESVKGRFTISRDNAQNPVYLQMNSLRPEDTAVYYCGVYRRTYISSTYSESSEYDYWGQGTLVTVSS = 0.000236

Consider the record given below.
Reported koff, binder RANKL18hum2 (VHH, name in Kabat numbering) VHH: EVQLVESGGGLVQPGGSLRLSCAASGRTFSRSAMGWFRQAPGKGREFVSFITGSGGTTYYGESVKGRFTISRDNAQNPVYLQMNSLRPEDTAVYYCGVYRRTYISSTYSESSEYDYWGQGTLVTVSS : ____
0.000173
